Collected pH 2 solubility values appear next to each entry.
- assay_setup: 0.1N HCL, 1.0% DMSO, 24-hour incubation at ambient temperature, maximum theoretical compound concentration 100 μM
metric_name: pH 2 solubility (μM)

INSERT INTO results (smiles_str, metric_name, readout_unit, observed_result) VALUES
  ('CC(C)[C@@H](C(=O)N(c1nn(CC(F)(F)F)c2c(-c3ccc(C#CC(C)(C)S(C)(=O)=O)nc3[C@H](Cc3cc(F)cc(F)c3)NC(=O)Cn3nc(C(F)(F)F)c4c3C(F)(F)[C@@H]3C[C@H]43)ccc(Cl)c12)S(C)(=O)=O)N(C)C', 'pH 2 solubility', 'μM', 51),
  ('CC(C)(CC(=O)N(c1nn(CC(F)(F)F)c2c(-c3ccc(C#CC(C)(C)S(C)(=O)=O)nc3[C@H](Cc3cc(F)cc(F)c3)NC(=O)Cn3nc(C(F)(F)F)c4c3C(F)(F)[C@@H]3C[C@H]43)ccc(Cl)c12)S(C)(=O)=O)CN(CC(=O)O)C(=O)OCOP(=O)(O)O', 'pH 2 solubility', 'μM', 1),
  ('CC(C)(C#Cc1ccc(-c2ccc(Cl)c3c(N(C(=O)CC4(CN(CC(=O)O)C(=O)OCOP(=O)(O)O)CC4)S(C)(=O)=O)nn(CC(F)(F)F)c23)c([C@H](Cc2cc(F)cc(F)c2)NC(=O)Cn2nc(C(F)(F)F)c3c2C(F)(F)[C@@H]2C[C@H]32)n1)S(C)(=O)=O', 'pH 2 solubility', 'μM', 1);

* * *

- assay_setup: 1×PBS buffer (pH 7.4), 1.0% DMSO, 24-hour incubation at ambient temperature, maximum theoretical compound concentration 100 μM
metric_name: pH 7 solubility (μM)

INSERT INTO measurements (compound, metric_name, readout_unit, observed_result) VALUES
  ('CC(C)(C#Cc1ccc(-c2ccc(Cl)c3c(N(C(=O)CCC(CC(=O)O)NC(=O)OCOP(=O)(O)O)S(C)(=O)=O)nn(CC(F)(F)F)c23)c([C@H](Cc2cc(F)cc(F)c2)NC(=O)Cn2nc(C(F)(F)F)c3c2C(F)(F)[C@@H]2C[C@H]32)n1)S(C)(=O)=O (stereo in doubt) [Compound 34]', 'pH 7 solubility', 'μM', 75),
  ('CC(C)(CC(=O)N(c1nn(CC(F)(F)F)c2c(-c3ccc(C#CC(C)(C)S(C)(=O)=O)nc3[C@H](Cc3cc(F)cc(F)c3)NC(=O)Cn3nc(C(F)(F)F)c4c3C(F)(F)[C@@H]3C[C@H]43)ccc(Cl)c12)S(C)(=O)=O)CN(CC(=O)O)C(=O)OCOP(=O)(O)O [Compound 42]', 'pH 7 solubility', 'μM', 100);

* * *

- assay_notes: physchem
- assay_setup: fed state simulated intestinal fluid (FeSSIF), 25 °C, fessif, thermodynamic from solid
Collected solubility values appear next to each entry.
metric_name: solubility (µg/mL)

INSERT INTO measurements (smiles_str, sign_qualifier, observed_result) VALUES
  ('CN(C(=O)N(c1nn(CC(F)(F)F)c2c(-c3ccc(C#CC(C)(C)S(C)(=O)=O)nc3[C@H](Cc3cc(F)cc(F)c3)NC(=O)Cn3nc(C(F)(F)F)c4c3C(F)(F)[C@@H]3C[C@H]43)ccc(Cl)c12)S(C)(=O)=O)c1ncccc1CN(CC(=O)O)C(=O)OCOP(=O)(O)O', '>', 6260),
  ('CC(C)(C#Cc1ccc(-c2ccc(Cl)c3c(N(C(=O)CCCOP(=O)(O)O)S(C)(=O)=O)nn(CC(F)(F)F)c23)c([C@H](Cc2cc(F)cc(F)c2)NC(=O)Cn2nc(C(F)(F)F)c3c2C(F)(F)[C@@H]2C[C@H]32)n1)S(C)(=O)=O', '=', 450),
  ('CC(C)(C#Cc1ccc(-c2ccc(Cl)c3c(N(C(=O)CC4(CN(CC(=O)O)C(=O)OCOP(=O)(O)O)CC4)S(C)(=O)=O)nn(CC(F)(F)F)c23)c([C@H](Cc2cc(F)cc(F)c2)NC(=O)Cn2nc(C(F)(F)F)c3c2C(F)(F)[C@@H]2C[C@H]32)n1)S(C)(=O)=O', '=', 3870),
  ('CC(C)(C#Cc1ccc(-c2ccc(Cl)c3c(N(C(=O)CCCN(CCC(=O)O)C(=O)OCOP(=O)(O)O)S(C)(=O)=O)nn(CC(F)(F)F)c23)c([C@H](Cc2cc(F)cc(F)c2)NC(=O)Cn2nc(C(F)(F)F)c3c2C(F)(F)[C@@H]2C[C@H]32)n1)S(C)(=O)=O', '=', 902);
